B1: Homeobox protein cut-like 2, residues 895 to 963; numbered along this chain, O14529 (parent)
chain: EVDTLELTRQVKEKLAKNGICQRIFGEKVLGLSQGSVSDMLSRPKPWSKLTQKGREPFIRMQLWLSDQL

variants of: B1; assay: abundance fitness (aPCA) (normalised: wild type 0, dead -1); higher = more abundant; growth selection in yeast, the domain comes from the species named; conditions: Homo sapiens
Please respond with reported abundance fitness for every item in the list.
Answers are plain numbers.

Query: Name the recorded abundance fitness for T4P .
Result: -0.179

Query: Name the recorded abundance fitness for E6K .
Result: -0.035

State the recorded abundance fitness for every item in the following list.
1. S66D
2. Q34P
3. Q52R
4. K14G
5. K17C
6. F58W
7. G54C

Result:
1: 0.094; 2: 0.053; 3: 0.015; 4: -0.589; 5: -0.2; 6: -0.111; 7: -0.007

State the recorded abundance fitness for every item in the following list.
1. F58G
2. A16F
3. L32S
4. D67R
5. G35W

Result:
1. -0.888
2. -0.198
3. -0.203
4. -0.008
5. -0.106

State the recorded abundance fitness for every item in the following list.
1. E6C
2. E6M
3. L41F

Result:
[-0.231, -0.192, -0.088]

State the recorded abundance fitness for every item in the following list.
1. K53M
2. K49H
3. A16I
4. W64Y
5. Q62Y

Result:
[-0.373, 0.009, -0.313, -0.372, -0.278]
